Entry source: the supplement of paper PMC9112550

System: Escherichia coli TOP10
Assay: shrunken log2 fold change of peptide-encoding DNA abundance (4.5 h post-induction vs induction); higher = less antimicrobial activity (less host growth inhibition)
Settings: time post-induction: 4.5 h; library: site-saturation at positions 5, 18, 19, 20
value-kind: shrunken log2 fold change

biosequence: RRIRKRPPRLPRPRPRPLNIPRP
target: Escherichia coli TOP10
value-kind: shrunken log2 fold change
numeric-readout: -0.0957
--
biosequence: RRIRRRPPRLPRPRPRPPDGPRP
target: Escherichia coli TOP10
value-kind: shrunken log2 fold change
numeric-readout: 0.326
--
biosequence: RRIRWRPPRLPRPRPRPWSIPRP
target: Escherichia coli TOP10
value-kind: shrunken log2 fold change
numeric-readout: -0.46
--
biosequence: RRIRWRPPRLPRPRPRPQPPPRP
target: Escherichia coli TOP10
value-kind: shrunken log2 fold change
numeric-readout: 0.603
--
biosequence: RRIRKRPPRLPRPRPRPHTFPRP
target: Escherichia coli TOP10
value-kind: shrunken log2 fold change
numeric-readout: -0.309
--
biosequence: RRIRDRPPRLPRPRPRPGSFPRP
target: Escherichia coli TOP10
value-kind: shrunken log2 fold change
numeric-readout: 0.0331
--
biosequence: RRIRGRPPRLPRPRPRPNTWPRP
target: Escherichia coli TOP10
value-kind: shrunken log2 fold change
numeric-readout: 0.237
--
biosequence: RRIRLRPPRLPRPRPRPTQYPRP
target: Escherichia coli TOP10
value-kind: shrunken log2 fold change
numeric-readout: -0.696
--
biosequence: RRIRSRPPRLPRPRPRPDPVPRP
target: Escherichia coli TOP10
value-kind: shrunken log2 fold change
numeric-readout: 0.377
--
biosequence: RRIRSRPPRLPRPRPRPTCMPRP
target: Escherichia coli TOP10
value-kind: shrunken log2 fold change
numeric-readout: 0.0286
--
biosequence: RRIRRRPPRLPRPRPRPMEIPRP
target: Escherichia coli TOP10
value-kind: shrunken log2 fold change
numeric-readout: -0.0055
--
biosequence: RRIRRRPPRLPRPRPRPDFTPRP
target: Escherichia coli TOP10
value-kind: shrunken log2 fold change
numeric-readout: 0.0748
--
biosequence: RRIRGRPPRLPRPRPRPEQEPRP
target: Escherichia coli TOP10
value-kind: shrunken log2 fold change
numeric-readout: 0.0952
--
biosequence: RRIRTRPPRLPRPRPRPSWAPRP
target: Escherichia coli TOP10
value-kind: shrunken log2 fold change
numeric-readout: 0.195
--
biosequence: RRIRQRPPRLPRPRPRPMRRPRP
target: Escherichia coli TOP10;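 note: peptides expressed intracellularly from a pBAD plasmid library in pooled LB shake-flask culture, induced with 0.3% L-arabinose, DNA abundance read by NGS, three biological replicates, DESeq2 with apeglm shrinkage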
value-kind: shrunken log2 fold change
numeric-readout: 0.225
